# System: human full-length MKNK1 (Homo sapiens (Human), UniProt Q9BUB5, T344D)
# Sequence (Q9BUB5 other isoform, or with tags, fused parts or gaps T344D): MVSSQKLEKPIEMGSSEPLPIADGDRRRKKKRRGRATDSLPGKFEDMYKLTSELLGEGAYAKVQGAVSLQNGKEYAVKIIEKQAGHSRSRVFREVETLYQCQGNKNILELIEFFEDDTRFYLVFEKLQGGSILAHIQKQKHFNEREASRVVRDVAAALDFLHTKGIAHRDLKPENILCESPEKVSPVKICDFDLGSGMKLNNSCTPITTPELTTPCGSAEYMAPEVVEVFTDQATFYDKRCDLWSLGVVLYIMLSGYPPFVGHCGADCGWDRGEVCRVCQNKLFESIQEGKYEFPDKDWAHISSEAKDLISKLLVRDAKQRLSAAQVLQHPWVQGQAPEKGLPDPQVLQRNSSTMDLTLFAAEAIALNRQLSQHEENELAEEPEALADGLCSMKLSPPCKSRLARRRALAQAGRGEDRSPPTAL
# Experiment Summary: MKNK1 kinase high ATP assay (TR-FRET)
# Type: biochemical
# Measurement Parameters: high ATP (2 mM), 15 min preincubation with enzyme; read-out: MKNK1 IC50
Measured IC50, listed per entry.
Report the figure in nM without appending any unit label.

Some solved entries appear below for comparison.
Molecule: CN(C)CCN(C)C(=O)[C@H]1CCc2c(sc3ncnc(Nc4cc5ccnn5cc4Cl)c23)C1 [Example 53]
System: human full-length MKNK1 (Homo sapiens (Human), UniProt Q9BUB5, T344D)
Measured Metric: IC50
Readout Value: 9

Molecule: COc1cn2nccc2cc1Nc1ncnc2sc3c(c12)CC[C@H](C(=O)N(C)C(C)(C)C)C3 [Example 120]
System: human full-length MKNK1 (Homo sapiens (Human), UniProt Q9BUB5, T344D)
Measured Metric: IC50
Readout Value: 5

Molecule: COc1cn2nccc2cc1Nc1ncnc2sc3c(c12)CC[C@H](C(=O)NC(C)C)C3 [Example 85]
System: human full-length MKNK1 (Homo sapiens (Human), UniProt Q9BUB5, T344D)
Measured Metric: IC50
Readout Value: 4

Molecule: CCN(CCO)C(=O)[C@H]1CCc2c(sc3ncnc(Nc4ccn5nccc5c4)c23)C1 [Example 21]
System: human full-length MKNK1 (Homo sapiens (Human), UniProt Q9BUB5, T344D)
Measured Metric: IC50
Readout Value: 19

Molecule: COc1cn2nccc2cc1Nc1ncnc2sc3c(c12)CC[C@H](C(=O)N(CCO)CCCN(C)C)C3 [Example 111]
System: human full-length MKNK1 (Homo sapiens (Human), UniProt Q9BUB5, T344D)
Measured Metric: IC50
Readout Value: 3

Can you look up the measured IC50 of CN(CCN)C(=O)[C@H]1CCc2c(sc3ncnc(Nc4ccn5nccc5c4)c23)C1 [Example 39] for me?
41

// returns reported IC50 for input CN(C)CCCN(CCO)C(=O)[C@H]1CCc2c(sc3ncnc(Nc4cc5ccnn5cc4Cl)c23)C1 [Example 63]
15

// IC50 lookup, key: COCCNC(=O)[C@H]1CCc2c(sc3ncnc(Nc4cc5ccnn5cc4OC)c23)C1 [Example 84]
3

# IC50 lookup, item CCN(CCOC)C(=O)[C@H]1CCc2c(sc3ncnc(Nc4cc5ccnn5cc4OC)c23)C1 [Example 118]
1

Look up IC50: CN(CC(F)F)C(=O)[C@H]1CCc2c(sc3ncnc(Nc4ccn5nccc5c4)c23)C1 [Example 18]
19

Which IC50 value is on record for O=C([C@H]1CCc2c(sc3ncnc(Nc4cc5ccnn5cc4Cl)c23)C1)N1C[C@H](O)[C@@H](O)C1 [Example 60] ?
18

So what's the measured IC50 for this one? N#CC1CN(C(=O)[C@H]2CCc3c(sc4ncnc(Nc5cc6ccnn6cc5Cl)c34)C2)C1 [Example 50]
7

Please report the recorded IC50 for COc1cn2nccc2cc1Nc1ncnc2sc3c(c12)CC[C@H](C(=O)N1C[C@@H]2C[C@H]1CO2)C3 [Example 123] .
2

Fill blank: measured IC50 of the molecule COc1cn2nccc2cc1Nc1ncnc2sc3c(c12)CC[C@H](C(=O)N1CC(N(C)C)C1)C3 [Example 102] is ____.
2

Query (molecule): C[C@H]1COCCN1C(=O)[C@H]1CCc2c(sc3ncnc(Nc4cc5ccnn5cc4Cl)c23)C1 [Example 76] ; field requested: IC50
7

###

The reader will find reported pIC50 values listed item by item below.
# System: human full-length MKNK1 (Homo sapiens (Human), UniProt Q9BUB5, T344D)
# Experiment Summary: MKNK1 kinase high ATP assay (TR-FRET)
# Format: biochemical
# Measurement Parameters: high ATP (2 mM), 15 min preincubation with enzyme; read-out: MKNK1 IC50
Scale: negative log10 of molar concentration, which is what pIC50 denotes.

The examples below pair each entry with its known result.
Compound: COc1cn2nccc2cc1Nc1ncnc2sc3c(c12)CC[C@H](C(=O)NCCC(F)(F)F)C3
pIC50: 8.52
--
Compound: C[C@@H]1CN(C(=O)[C@H]2CCc3c(sc4ncnc(Nc5ccn6nccc6c5)c34)C2)C[C@@H](C)O1
pIC50: 7.48
--
Compound: COc1cn2nccc2cc1Nc1ncnc2sc3c(c12)CC[C@H](C(=O)Nc1cccc(Cl)c1)C3
pIC50: 7.62
--
Compound: COCCN(C)C(=O)[C@H]1CCc2c(sc3ncnc(Nc4cc5ccnn5cc4Cl)c23)C1
pIC50: 7.39
--
Compound: C[C@@H]1COC[C@@H](C)N1C(=O)[C@H]1CCc2c(sc3ncnc(Nc4ccn5nccc5c4)c23)C1
pIC50: 8.15
--
Compound: O=C([C@H]1CCc2c(sc3ncnc(Nc4ccn5nccc5c4)c23)C1)N1CCOCC1
pIC50: 7.21

Give the measured pIC50 of O=C([C@H]1CCc2c(sc3ncnc(Nc4ccn5nccc5c4)c23)C1)N1CC(F)(F)C1 .
7.64

Recorded pIC50 of CCCCN(C)C(=O)[C@H]1CCc2c(sc3ncnc(Nc4cc5ccnn5cc4OC)c23)C1 , please.
9.00

For the compound shown here, CNC(=O)[C@H]1CCc2c(sc3ncnc(Nc4cc5ccnn5cc4OC)c23)C1 , give the reported pIC50.
8.30

Find the recorded pIC50 belonging to CN(CC(C)(C)O)C(=O)[C@H]1CCc2c(sc3ncnc(Nc4ccn5nccc5c4)c23)C1 and report it.
7.68

# pIC50 lookup, item CN(C)CCN1CCN(C(=O)[C@H]2CCc3c(sc4ncnc(Nc5ccn6nccc6c5)c34)C2)CC1
7.59

# input compound: COc1cn2nccc2cc1Nc1ncnc2sc3c(c12)CC[C@H](C(=O)N1C[C@H](O)[C@@H](O)C1)C3 ; wanted: its pIC50
9.00

Entry COCCN(CCOC)C(=O)[C@H]1CCc2c(sc3ncnc(Nc4cc5ccnn5cc4Cl)c23)C1 : reported pIC50 = ?
7.92

###

# System: human full-length MKNK1 (Homo sapiens (Human), UniProt Q9BUB5, T344D)
# Experiment Summary: MKNK1 kinase high ATP assay (TR-FRET)
# Type: biochemical
# Measurement Parameters: high ATP (2 mM), 15 min preincubation with enzyme; read-out: MKNK1 IC50
Measured Metric: IC50
Please format your answer as a value with the unit trailing.

Guide cases for IC50, answers given:
Compound: COc1cn2nccc2cc1Nc1ncnc2sc3c(c12)CC[C@H](C(=O)NCC(F)F)C3 [Example 79]
Measured Metric: IC50
Readout Value: 3 nM

Compound: CN(C)[C@H]1CCN(C(=O)[C@H]2CCc3c(sc4ncnc(Nc5ccn6nccc6c5)c34)C2)C1 [Example 41]
Measured Metric: IC50
Readout Value: 11 nM

Compound: COc1cn2nccc2cc1Nc1ncnc2sc3c(c12)CC[C@H](C(=O)N(C)CCN(C)C)C3 [Example 101]
Measured Metric: IC50
Readout Value: 2 nM

Compound: CC(C)NC(=O)[C@H]1CCc2c(sc3ncnc(Nc4cc5ccnn5cc4Cl)c23)C1 [Example 44]
Measured Metric: IC50
Readout Value: 54 nM

Compound: COc1cn2nccc2cc1Nc1ncnc2sc3c(c12)CC[C@H](C(=O)Nc1ccc(Cl)c(Cl)c1)C3 [Example 90]
Measured Metric: IC50
Readout Value: 235 nM

Compound: CC(C)N(C)C(=O)[C@H]1CCc2c(sc3ncnc(Nc4ccn5nccc5c4)c23)C1 [Example 16]
Measured Metric: IC50
Readout Value: 19 nM

Compound: COc1cn2nccc2cc1Nc1ncnc2sc3c(c12)CC[C@H](C(=O)NCCN(C)C)C3 [Example 82]
Measured Metric: IC50
Readout Value: 3 nM

Here is the next item to consider.
Please report the recorded IC50 for CCN(CCO)C(=O)[C@H]1CCc2c(sc3ncnc(Nc4cc5ccnn5cc4OC)c23)C1 [Example 117] .
1 nM

###

# System: human full-length MKNK1 (Homo sapiens (Human), UniProt Q9BUB5, T344D)
# Experiment Summary: MKNK1 kinase high ATP assay (TR-FRET)
# Assay type: biochemical
# Measurement Parameters: high ATP (2 mM), 15 min preincubation with enzyme; read-out: MKNK1 IC50
pIC50: −log10 of the molar value.
Respond with class 1 for pIC50 values of 8 and above, class 0 for values below.

Example cases with answers are listed next.
Test Smiles: CN(CCC(F)(F)F)C(=O)[C@H]1CCc2c(sc3ncnc(Nc4cc5ccnn5cc4Cl)c23)C1
Class Label: class 0
--
Test Smiles: CN(C)C1CCN(C(=O)[C@H]2CCc3c(sc4ncnc(Nc5ccn6nccc6c5)c34)C2)CC1
Class Label: class 0

API: above_or_equal(metric=pIC50, cutoff=8) for item CN(CCO)C(=O)[C@H]1CCc2c(sc3ncnc(Nc4cc5ccnn5cc4Cl)c23)C1
class 0

Determine whether this molecule has pIC50 no lower than 8: COc1cn2nccc2cc1Nc1ncnc2sc3c(c12)CC[C@H](C(=O)N(C)C(C)C)C3
class 1

Does CN(C)CCCN(C)C(=O)[C@H]1CCc2c(sc3ncnc(Nc4cc5ccnn5cc4Cl)c23)C1 have a reported pIC50 of at least 8?
class 1

Please indicate if the recorded pIC50 for CCN(CCN(C)C)C(=O)[C@H]1CCc2c(sc3ncnc(Nc4cc5ccnn5cc4OC)c23)C1 meets or exceeds 8.
class 1

Hi, just wondering whether O=C([C@H]1CCc2c(sc3ncnc(Nc4ccn5nccc5c4)c23)C1)N1CC2(COC2)C1 shows pIC50 of 8 or higher.
class 0

Hi, just wondering whether COc1cn2nccc2cc1Nc1ncnc2sc3c(c12)CC[C@H](C(=O)NCC(C)(C)O)C3 shows pIC50 of 8 or higher.
class 1

Is the recorded value of pIC50 equal to or greater than 8 for this molecule? COc1cn2nccc2cc1Nc1ncnc2sc3c(c12)CC[C@H](C(=O)N(C)CC(F)F)C3
class 1

Textbook exercise: given the entry CN1CCN(C(=O)[C@H]2CCc3c(sc4ncnc(Nc5ccn6nccc6c5)c34)C2)CC1 , state whether its pIC50 is greater than or equal to 8.
class 0
